systemTested: Human EphA2 (Ecto) (Human) (UniProt P29317)
Sequence (P29317 24-537): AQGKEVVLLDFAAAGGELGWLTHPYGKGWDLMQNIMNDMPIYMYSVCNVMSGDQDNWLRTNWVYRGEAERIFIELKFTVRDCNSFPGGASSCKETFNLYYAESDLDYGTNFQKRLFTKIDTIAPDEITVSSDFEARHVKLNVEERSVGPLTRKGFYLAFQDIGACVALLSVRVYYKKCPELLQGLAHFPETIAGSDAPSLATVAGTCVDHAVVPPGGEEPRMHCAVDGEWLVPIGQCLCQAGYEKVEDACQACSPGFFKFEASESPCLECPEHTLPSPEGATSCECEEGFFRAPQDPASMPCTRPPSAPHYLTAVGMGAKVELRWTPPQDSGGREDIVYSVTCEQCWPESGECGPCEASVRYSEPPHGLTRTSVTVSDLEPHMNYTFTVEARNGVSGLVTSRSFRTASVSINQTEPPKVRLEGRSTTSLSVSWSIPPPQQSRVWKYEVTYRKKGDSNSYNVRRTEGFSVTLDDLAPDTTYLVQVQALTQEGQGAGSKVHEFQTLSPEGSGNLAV
procedureText: FP competition, tracer Compound 18
Starred links: 1 amine or outer side, 2 acyl side, 3 side chain; linkers in the order of their positions; H or OH if unused. Positions of bridges follow the written chain, without caps; N, C: chain ends. Non-standard residues stand in square brackets, D forms with d. No end group written: not given here. 1Nal = N[C@@H](Cc1cccc2ccccc12)C(=O)O; TBMB = c1c(C[*:1])cc(C[*:3])cc1C[*:2]; hArg = N=C(N)NCCCC[C@H](N)C(=O)O; Tle = CC(C)(C)[C@H](N)C(=O)O; Aib = CC(C)(N)C(=O)O; βAla = NCCC(=O)O; Sar = CNCC(=O)O
observationType: pKi
Answers are plain numbers, as −log10 of the molar value.

For each listed entry, give its pKi.
1. Ac-[Sar][Sar]H[dD]VPCP[1Nal]G[Aib]F[1Nal]CP[Tle]N[hArg]P[dD]C (linker 7-14-21 via TBMB) [Bicycle Compound 254]
2. Ac-[Sar][Sar]A[dH]DVPCP[1Nal]G[Aib]F[1Nal]CP[Tle]NR[Aib]GC (linker 8-15-22 via TBMB) [Bicycle Compound 232]
3. [βAla][Sar][Sar][Sar][Sar][Sar][Sar][Sar][Sar][Sar][Sar]H[dD]VPC[Aib][1Nal]G[Aib]F[1Nal]CP[Tle]N[hArg][Aib][dD]C (linker 16-23-30 via TBMB) [Bicycle Compound 238]
4. Ac-[Sar][Sar]A[dH]DVPCP[1Nal]G[Aib]F[1Nal]CP[Tle]N[hArg]PGC (linker 8-15-22 via TBMB) [Bicycle Compound 231]
5. [βAla][Sar][Sar][Sar][Sar][Sar][Sar][Sar][Sar][Sar][Sar]H[dD]VPC[Aib][1Nal]G[Aib]F[1Nal]CP[Tle]N[hArg]PGC (linker 16-23-30 via TBMB) [Bicycle Compound 235]

1: 9.13; 2: 9.05; 3: 8.55; 4: 8.71; 5: 8.59
